Quick list: growth AUC normalised to DMSO control per entry.
test system: S. enterica typhimurium WT; experiment: growth AUC normalised to DMSO control (median) (fraction of control); higher = less growth inhibition, active = hit call of the paper; settings: 20 µM;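 also: active when median AUC fell below 0.1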
Where a name gives a salt, the structure may show the parent alone.
Just the number, please, no unit after it.

Some compounds with recorded growth AUC normalised to DMSO control:
>>> number("CC1(C)O[C@@H]2C[C@H]3[C@@H]4C[C@H](F)C5=CC(=O)C=C[C@]5(C)[C@H]4[C@@H](O)C[C@]3(C)[C@]2(C(=O)CO)O1 [Flunisolide]")
1
>>> number("O=C(O)Cc1csc(-c2ccc(Cl)cc2)n1")
1.01
>>> number("CO[C@@]1(NC(=O)Cc2cccs2)C(=O)N2C(C(=O)O)=C(COC(N)=O)CS[C@@H]21 [Cefoxitin sodium salt]")
0.00954

Lookup result for CCN(CC)CCNC(=O)c1cc(Br)c(N)cc1OC [Bromopride] ; measured growth AUC normalised to DMSO control: 1.01
